system: Pseudomonas aeruginosa; assay: Antibacterial activity against Pseudomonas aeruginosa MTCC 1688 after 24 hrs by cup diffusion method; type: functional; conditions: MTCC 1688, 24 h
measurement-label: MIC (µg/mL)

INSERT INTO results (compound, measurement_label, reported) VALUES
  ('CCOC(=O)C1CCC(c2ccc(OC)c(OC)c2)=NO1 (centres undefined)', 'MIC', 15),
  ('Cc1ccc(C2=NOC(C#N)CC2)cc1 (centres undefined)', 'MIC', 20),
  ('COc1ccc(C2=NOC(CCl)CC2)cc1 (centres undefined)', 'MIC', 15),
  ('CCOC(=O)C1CCC(c2ccc(OC)cc2)=NO1 (centres undefined)', 'MIC', 20),
  ('COc1ccc(C2=NOC(CO)CC2)cc1OC (centres undefined)', 'MIC', 20),
  ('CCOC(=O)C1CCC(c2ccc3c(c2)CCC3)=NO1 (centres undefined)', 'MIC', 20),
  ('Cc1ccc(C2=NOC(Cc3ccc4c(c3)OCO4)CC2)cc1 (centres undefined)', 'MIC', 20),
  ('Cc1ccc(C2=NOC(C#N)CC2)cc1C (centres undefined)', 'MIC', 15),
  ('COc1ccc(C2=NOC(CCl)CC2)cc1OC (centres undefined)', 'MIC', 15),
  ('CCOC(=O)C1CCC(c2ccc(C)c(C)c2)=NO1 (centres undefined)', 'MIC', 20),
  ('ClCC1CCC(c2ccc3c(c2)CCC3)=NO1 (centres undefined)', 'MIC', 15),
  ('Cc1ccc(C2=NOC(CO)CC2)cc1C (centres undefined)', 'MIC', 25),
  ('COc1ccc(C2=NOC(Cc3ccc4c(c3)OCO4)CC2)cc1OC (centres undefined)', 'MIC', 20),
  ('Cc1ccc(C2=NOC(CCl)CC2)cc1C (centres undefined)', 'MIC', 15),
  ('COc1ccc(C2=NOC(Cc3ccc4c(c3)OCO4)CC2)cc1 (centres undefined)', 'MIC', 20),
  ('COc1ccc(C2=NOC(C#N)CC2)cc1 (centres undefined)', 'MIC', 15),
  ('N#CC1CCC(c2ccc3c(c2)CCC3)=NO1 (centres undefined)', 'MIC', 15),
  ('Cc1ccc(C2=NOC(Cc3ccc4c(c3)OCO4)CC2)cc1C (centres undefined)', 'MIC', 20),
  ('Cc1ccc(C2=NOC(CCl)CC2)cc1 (centres undefined)', 'MIC', 15),
  ('COc1ccc(C2=NOC(CO)CC2)cc1 (centres undefined)', 'MIC', 20),
  ('OCC1CCC(c2ccc3c(c2)CCC3)=NO1 (centres undefined)', 'MIC', 20),
  ('COc1ccc(C2=NOC(C#N)CC2)cc1OC (centres undefined)', 'MIC', 10),
  ('c1cc2c(cc1CC1CCC(c3ccc4c(c3)CCC4)=NO1)OCO2 (centres undefined)', 'MIC', 15),
  ('Cc1ccc(C2=NOC(CO)CC2)cc1 (centres undefined)', 'MIC', 25);
